- Tested on: Acinetobacter baumannii NCTC 13304 (OXA-27)
- Type: cell-based
- MEASUREMENT SETUP: NCTC 13304
Numbered stars: 1 amine (or outer) side, 2 acyl side, 3 side chain; on linkers, the order of the positions; unused ones are H or OH. Bridge positions count the residues as written; N and C are the ends. Square brackets hold non-standard residues; d marks the D form. Peptide text beside a SMILES is read from it. * marks the point of attachment. X2 = O=C([C@H](CNCS(=O)(=O)O)N[*:1])[*:2]; Heptanoyl(6-Me) = CC(C)CCCCC(=O)*; X1 = CC[C@H](C)CCCCC(=O)*; dDab = NCC[C@@H](N)C(=O)O; Heptanoyl = CCCCCCC(=O)*; Orn = NCCC[C@H](N)C(=O)O; Dab = NCC[C@H](N)C(=O)O; Dap = NC[C@H](N)C(=O)O
Here the recorded MIC is given for each entry.

COMPOUND | MIC / µg/mL
CC(C)CCCCC(=O)N[C@@H](CCN)C(=O)N[C@H](C(=O)N[C@@H](CNCS(=O)(=O)O)C(=O)N[C@H]1CCNC(=O)[C@H]([C@@H](C)O)NC(=O)[C@H](CCN)NC(=O)[C@H](CCN)NC(=O)[C@H]([C@@H](C)O)NC(=O)[C@@H](Cc2ccccc2)NC(=O)[C@H](CCN)NC1=O)[C@@H](C)O [Compound 112] ({Heptanoyl(6-Me)}-[Dab]T[X2][Dab][Dab][dF]T[Dab][Dab]T; lactam 4-C) | 0.06
CC(C)CCCCC(=O)N[C@@H](CCN)C(=O)N[C@H](C(=O)N[C@@H](CCCN)C(=O)N[C@H]1CCNC(=O)[C@H]([C@@H](C)O)NC(=O)[C@H](CCN)NC(=O)[C@H](CCN)NC(=O)[C@H]([C@@H](C)O)NC(=O)[C@@H](Cc2ccccc2)NC(=O)[C@H](CCN)NC1=O)[C@@H](C)O [Compound 27] ({Heptanoyl(6-Me)}-[Dab]T[Orn][Dab][Dab][dF]T[Dab][Dab]T; lactam 4-C) | 0.06
CC[C@H](C)CCCCC(=O)N[C@@H](CN)C(=O)N[C@H](C(=O)N[C@H](CCN)C(=O)N[C@H]1CCNC(=O)[C@H]([C@@H](C)O)NC(=O)[C@H](CCN)NC(=O)[C@H](CCN)NC(=O)[C@H](CC(C)C)NC(=O)[C@@H](CC(C)C)NC(=O)[C@H](CCN)NC1=O)[C@@H](C)O [Compound 96] (X1-[Dap]T[dDab][Dab][Dab][dL]L[Dab][Dab]T; lactam 4-C) | 0.03
CCCCCCC(=O)N[C@@H](CCCN)C(=O)N[C@H](C(=O)N[C@H](CO)C(=O)N[C@H]1CCNC(=O)[C@H]([C@@H](C)O)NC(=O)[C@H](CCN)NC(=O)[C@H](CCN)NC(=O)[C@H]([C@@H](C)O)NC(=O)[C@@H](Cc2ccccc2)NC(=O)[C@H](CCN)NC1=O)[C@@H](C)O [Compound 59] (Heptanoyl-[Orn]T[dS][Dab][Dab][dF]T[Dab][Dab]T; lactam 4-C) | 0.25
CCCCCCC(=O)N[C@@H](CCN)C(=O)N[C@H](C(=O)N[C@H](CO)C(=O)N[C@H]1CCNC(=O)[C@H]([C@@H](C)O)NC(=O)[C@H](CCN)NC(=O)[C@H](CN)NC(=O)[C@H]([C@@H](C)O)NC(=O)[C@@H](Cc2ccccc2)NC(=O)[C@H](CCN)NC1=O)[C@@H](C)O [Compound 74] (Heptanoyl-[Dab]T[dS][Dab][Dab][dF]T[Dap][Dab]T; lactam 4-C) | 0.03
CCCCCCC(=O)N[C@@H](CN)C(=O)N[C@H](C(=O)N[C@H](CO)C(=O)N[C@H]1CCNC(=O)[C@H]([C@@H](C)O)NC(=O)[C@H](CCN)NC(=O)[C@H](CCN)NC(=O)[C@H]([C@@H](C)O)NC(=O)[C@@H](Cc2ccccc2)NC(=O)[C@H](CCN)NC1=O)[C@@H](C)O [Compound 54] (Heptanoyl-[Dap]T[dS][Dab][Dab][dF]T[Dab][Dab]T; lactam 4-C) | 0.25

###

- EXPERIMENT DESCRIPTION: Nephrotoxicity assay: in vitro cytotoxicity of HK-2 cells by CCK-8 assay
- Format: cell-based
- MEASUREMENT SETUP: human, HK-2 cells (human renal), 72 h incubation with drug-containing medium
Numbered stars: 1 amine (or outer) side, 2 acyl side, 3 side chain; on linkers, the order of the positions; unused ones are H or OH. Bridge positions count the residues as written; N and C are the ends. Square brackets hold non-standard residues; d marks the D form. Peptide text beside a SMILES is read from it. * marks the point of attachment. X3 = O=C([C@@H](Cc1ccc(CS(=O)(=O)O)cc1)N[*:1])[*:2]; Dab(CH2SO3H) = N[C@@H](CCNCS(=O)(=O)O)C(=O)O; Heptanoyl(6-Me) = CC(C)CCCCC(=O)*; Sulfomethyl = O=S(=O)(O)C*; Nonanoyl = CCCCCCCCC(=O)*; X1 = CC[C@H](C)CCCCC(=O)*; dDab = NCC[C@@H](N)C(=O)O; Heptanoyl = CCCCCCC(=O)*; Octanoyl = CCCCCCCC(=O)*; Orn = NCCC[C@H](N)C(=O)O; Dab = NCC[C@H](N)C(=O)O; Dap = NC[C@H](N)C(=O)O
Parameter: IC50 at 72 h. Scope: all listed entries.

COMPOUND | RELATIONAL OPERATOR | IC50 at 72 h [µg/mL]
CC(C)CCCCC(=O)N[C@@H](CCN)C(=O)N[C@H](C(=O)N[C@H](CO)C(=O)N[C@H]1CCNC(=O)[C@H]([C@@H](C)O)NC(=O)[C@H](CCN)NC(=O)[C@H](CCN)NC(=O)[C@H]([C@@H](C)O)NC(=O)[C@@H](Cc2ccc(CS(=O)(=O)O)cc2)NC(=O)[C@H](CCN)NC1=O)[C@@H](C)O [Compound 107] ({Heptanoyl(6-Me)}-[Dab]T[dS][Dab][Dab][X3]T[Dab][Dab]T; lactam 4-C) | > | 500
CCCCCCCC(=O)N[C@@H](CN)C(=O)N[C@H](C(=O)N[C@H](CCN)C(=O)N[C@H]1CCNC(=O)[C@H]([C@@H](C)O)NC(=O)[C@H](CCN)NC(=O)[C@H](CCN)NC(=O)[C@H](CC(C)C)NC(=O)[C@@H](CC(C)C)NC(=O)[C@H](CCN)NC1=O)[C@@H](C)O [Compound 98] (Octanoyl-[Dap]T[dDab][Dab][Dab][dL]L[Dab][Dab]T; lactam 4-C) | = | 238
CC(C)CCCCC(=O)N[C@@H](CCN)C(=O)N[C@H](C(=O)N[C@@H](CN)C(=O)N[C@H]1CCNC(=O)[C@H]([C@@H](C)O)NC(=O)[C@H](CCN)NC(=O)[C@H](CCN)NC(=O)[C@H]([C@@H](C)O)NC(=O)[C@@H](Cc2ccccc2)NC(=O)[C@H](CCNCS(=O)(=O)O)NC1=O)[C@@H](C)O [Compound 118] ({Heptanoyl(6-Me)}-[Dab]T[Dap][Dab][Dab(CH2SO3H)][dF]T[Dab][Dab]T; lactam 4-C) | > | 500
CCCCCCCCC(=O)N[C@@H](CCCN)C(=O)N[C@H](C(=O)N[C@H](CO)C(=O)N[C@H]1CCNC(=O)[C@H]([C@@H](C)O)NC(=O)[C@H](CCN)NC(=O)[C@H](CCN)NC(=O)[C@H]([C@@H](C)O)NC(=O)[C@@H](Cc2ccccc2)NC(=O)[C@H](CCN)NC1=O)[C@@H](C)O [Compound 60] (Nonanoyl-[Orn]T[dS][Dab][Dab][dF]T[Dab][Dab]T; lactam 4-C) | = | 281
CCCCCCC(=O)N[C@@H](CCCN)C(=O)N[C@H](C(=O)N[C@H](CO)C(=O)N[C@H]1CCNC(=O)[C@H]([C@@H](C)O)NC(=O)[C@H](CCN)NC(=O)[C@H](CCN)NC(=O)[C@H]([C@@H](C)O)NC(=O)[C@@H](Cc2ccccc2)NC(=O)[C@H](CCN)NC1=O)[C@@H](C)O [Compound 59] (Heptanoyl-[Orn]T[dS][Dab][Dab][dF]T[Dab][Dab]T; lactam 4-C) | > | 500
CCCCCCCCC(=O)N[C@@H](CCN)C(=O)N[C@H](C(=O)N[C@@H](CCCN)C(=O)N[C@H]1CCNC(=O)[C@H]([C@@H](C)O)NC(=O)[C@H](CCN)NC(=O)[C@H](CCN)NC(=O)[C@H](CC(C)C)NC(=O)[C@@H](Cc2ccccc2)NC(=O)[C@H](CCN)NC1=O)[C@@H](C)O [Compound 50] (Nonanoyl-[Dab]T[Orn][Dab][Dab][dF]L[Dab][Dab]T; lactam 4-C) | = | 150
CCCCCCC(=O)N[C@@H](CCN)C(=O)N[C@H](C(=O)N[C@@H](CCCN)C(=O)N[C@H]1CCNC(=O)[C@H]([C@@H](C)O)NC(=O)[C@H](CCN)NC(=O)[C@H](CCN)NC(=O)[C@H]([C@@H](C)O)NC(=O)[C@@H](Cc2ccccc2)NC(=O)[C@H](CCN)NC1=O)[C@@H](C)O [Compound 29] (Heptanoyl-[Dab]T[Orn][Dab][Dab][dF]T[Dab][Dab]T; lactam 4-C) | > | 500
CC(C)CCCCC(=O)N[C@@H](CCCN)C(=O)N[C@H](C(=O)N[C@H](CO)C(=O)N[C@H]1CCNC(=O)[C@H]([C@@H](C)O)NC(=O)[C@H](CCN)NC(=O)[C@H](CCN)NC(=O)[C@H]([C@@H](C)O)NC(=O)[C@@H](Cc2ccccc2)NC(=O)[C@H](CCN)NC1=O)[C@@H](C)O [Compound 57] ({Heptanoyl(6-Me)}-[Orn]T[dS][Dab][Dab][dF]T[Dab][Dab]T; lactam 4-C) | > | 500
CC(C)CCCCC(=O)N[C@@H](CCN)C(=O)N[C@H](C(=O)N[C@@H](CN)C(=O)N[C@H]1CCNC(=O)[C@H]([C@@H](C)O)NC(=O)[C@H](CCN)NC(=O)[C@H](CCN)NC(=O)[C@H]([C@@H](C)OCS(=O)(=O)O)NC(=O)[C@@H](Cc2ccccc2)NC(=O)[C@H](CCN)NC1=O)[C@@H](C)O [Compound 114] ({Heptanoyl(6-Me)}-[Dab]T[Dap][Dab][Dab][dF]T(Sulfomethyl)[Dab][Dab]T; lactam 4-C) | > | 500
CC[C@H](C)CCCCC(=O)N[C@@H](CCN)C(=O)N[C@H](C(=O)N[C@@H](CCCN)C(=O)N[C@H]1CCNC(=O)[C@H]([C@@H](C)O)NC(=O)[C@H](CCN)NC(=O)[C@H](CCN)NC(=O)[C@H](CC(C)C)NC(=O)[C@@H](Cc2ccccc2)NC(=O)[C@H](CCN)NC1=O)[C@@H](C)O [Compound 46] (X1-[Dab]T[Orn][Dab][Dab][dF]L[Dab][Dab]T; lactam 4-C) | = | 287
